List of EC50 values.
Target: T1, P-0689 (IL-2 Fc fusion) (Homo sapiens (Human), UniProt P0DOX5 223-448 = IgG part)
T1 construct: Monovalent IL-2 S125I Fc fusion; also called IL-2 S125I monovalent Fc fusion protein; monovalent wild-type IL-2 Fc fusion protein
Assay: ELISA, IL-2RαSushi Fc fusion coated, P-0689 titrated, biotin anti-IL2 antibody and Avidin-HRP
From the text: IL-2Rα variants were designed to reduce binding to IL-2 by incorporating mutations at residues interacting IL-2 so that the D3 moiety would readily diffuse away upon in vivo proteolysis. Three exemplary IL-2RαSushi variants (SEQ ID NOS: 267-269) were expressed as monovalent Fc fusion proteins corresponding to P-0751 (Y43A), P-0752 (L42G), and P-0753 (R36A), respectively. […]

- binder: "P-0757 (wild-type IL-2RαSushi monovalent Fc fusion) (Fc fusion, also called w/t IL-2Rα; not shown: Fc chain fused to the Sushi domain, its linker and orientation, and the partner Fc chain of the monovalent heterodimer) ELCDDDPPEIPHATFKAMAYKEGTMLNCECKRGFRRIKSGSLYMLCTGNSSHSSWDNQCQCTSSATRNTTKQVTPQPEEQKERKTTEMQSPMQPVDQASLPGHCREPPPWENEATERIYHFVVGQMVYYQCVQGYRALHRGPAESVCKMTHGKTRWTQPQLICTG"
  EC50 (nM): 0.26
- binder: "P-0753 (IL-2RαSushi R36A monovalent Fc fusion) (Fc fusion, also called IL-2Rα R36A; not shown: Fc chain fused to the Sushi variant, its linker and orientation, and the partner Fc chain of the monovalent heterodimer) ELCDDDPPEIPHATFKAMAYKEGTMLNCECKRGFRAIKSGSLYMLCTGNSSHSSWDNQCQCTSSATRNTTKQVTPQPEEQKERKTTEMQSPMQPVDQASLPGHCREPPPWENEATERIYHFVVGQMVYYQCVQGYRALHRGPAESVCKMTHGKTRWTQPQLICTG"
  EC50 (nM): 90
- binder: "P-0752 (IL-2RαSushi L42G monovalent Fc fusion) (Fc fusion, also called IL-2Rα L42G; not shown: Fc chain fused to the Sushi variant, its linker and orientation, and the partner Fc chain of the monovalent heterodimer) ELCDDDPPEIPHATFKAMAYKEGTMLNCECKRGFRRIKSGSGYMLCTGNSSHSSWDNQCQCTSSATRNTTKQVTPQPEEQKERKTTEMQSPMQPVDQASLPGHCREPPPWENEATERIYHFVVGQMVYYQCVQGYRALHRGPAESVCKMTHGKTRWTQPQLICTG"
  EC50 (nM): 9.2
- binder: "P-0751 (IL-2RαSushi Y43A monovalent Fc fusion) (Fc fusion, also called IL-2Rα Y43A; not shown: Fc chain fused to the Sushi variant, its linker and orientation, and the partner Fc chain of the monovalent heterodimer) ELCDDDPPEIPHATFKAMAYKEGTMLNCECKRGFRRIKSGSLAMLCTGNSSHSSWDNQCQCTSSATRNTTKQVTPQPEEQKERKTTEMQSPMQPVDQASLPGHCREPPPWENEATERIYHFVVGQMVYYQCVQGYRALHRGPAESVCKMTHGKTRWTQPQLICTG"
  EC50 (nM): 2.1
